Entries with reported ID50 on Human immunodeficiency virus type 1 reverse transcriptase (Human immunodeficiency virus 1)
One number for each entry, in µM.

Below: 3 compounds and their reported ID50.
COc1ccc(C(=O)CSc2nc(Cc3c(F)cccc3F)c(C(C)C)c(=O)[nH]2)cc1 | 0.026
CCC(C)c1c(Cc2c(F)cccc2Cl)nc(SCC(=O)c2ccc(OC)cc2)[nH]c1=O (stereo not given) | 0.007
CC(C)c1c(Cc2c(F)cccc2F)nc(SCC(=O)c2ccccc2)[nH]c1=O | 0.008

Would you be so kind as to report ID50 for each listed record?
1. CCc1c(Cc2c(F)cccc2Cl)nc(SCC(=O)c2ccccc2)[nH]c1=O
2. CCc1c(Cc2c(F)cccc2Cl)nc(SCC(=O)c2ccc(OC)cc2)[nH]c1=O
3. Cc1c(Cc2c(F)cccc2Cl)nc(SCC(=O)c2ccccc2)[nH]c1=O
4. O=C(CSc1nc(Cc2c(Cl)cccc2Cl)cc(=O)[nH]1)c1ccc(F)cc1
5. Cc1c(Cc2c(Cl)cccc2Cl)nc(SCC(=O)c2ccc(F)cc2)[nH]c1=O

Result:
1. 0.008
2. 0.007
3. 0.012
4. 0.21
5. 0.19

----------
tested on: Human immunodeficiency virus 1; assay: Antiviral activity against HIV1 isolates with reverse transcriptase Y188L mutation in human MT4 cells assessed as inhibition of virus-induced cytopathogenicity by MTT assay; format: functional, organism-based; details: Human immunodeficiency virus 1, MT4
Hi there, I'd appreciate the recorded EC50 for every entry that follows.

Below: 8 compounds and their reported EC50.
COc1ccc(C(=O)CSc2nc(Cc3c(F)cccc3Cl)c(C(C)C)c(=O)[nH]2)cc1 | > 11 µM
CCC(C)c1c(Cc2c(F)cccc2Cl)nc(SCC(=O)c2ccc(F)cc2)[nH]c1=O (stereo not given) | > 54 µM
Cc1ccnc2c1NC(=O)c1cccnc1N2C1CC1 | > 7 µM
Cc1c(Cc2c(F)cccc2F)nc(SCC(=O)c2ccc(F)cc2)[nH]c1=O | > 62 µM
COc1ccc(C(=O)CSc2nc(Cc3c(F)cccc3Cl)c(C)c(=O)[nH]2)cc1 | > 12 µM
CCc1c(Cc2c(F)cccc2Cl)nc(SCC(=O)c2ccccc2)[nH]c1=O | 9.38 µM
COc1ccc(C(=O)CSc2nc(Cc3c(Cl)cccc3Cl)c(C)c(=O)[nH]2)cc1 | > 56 µM
O=C(CSc1nc(Cc2c(F)cccc2Cl)cc(=O)[nH]1)c1ccccc1 | > 13 µM

Would you be so kind as to report EC50 for each listed record?
1. Cc1c(Cc2c(F)cccc2F)nc(SCC(=O)c2ccccc2)[nH]c1=O
2. O=C(CSc1nc(Cc2c(Cl)cccc2Cl)cc(=O)[nH]1)c1ccccc1

Result:
["> 65 µM", "> 12 µM"]

----------
Hi there, I'd appreciate the recorded Ratio for every entry that follows.
tested on: Human immunodeficiency virus 1; experiment: Resistance index, ratio of ID50 for reverse transcriptase Y181I mutant to IC50 for wild-type HIV1 reverse transcriptase
Answers are plain numbers.

Below: 2 molecules and their reported Ratio.
CCc1c(Cc2c(F)cccc2F)nc(SCC(=O)c2ccccc2)[nH]c1=O | 19
Cc1c(Cc2c(Cl)cccc2Cl)nc(SCC(=O)c2ccc(F)cc2)[nH]c1=O | 4

Shift focus to the following entry.
Query: Which value of Ratio has been reported for CC(C)c1c(Cc2c(Cl)cccc2Cl)nc(SCC(=O)c2ccc(F)cc2)[nH]c1=O in the records?
Result: 1530

----------
Hi there, I'd appreciate the recorded EC50 for every entry that follows.
tested on: Human immunodeficiency virus 1; assay: Antiviral activity against HIV1 isolates with reverse transcriptase Y188L mutation in human MT4 cells assessed as inhibition of virus-induced cytopathogenicity by MTT assay; type: functional, organism-based; details: Human immunodeficiency virus 1, MT4

Below: 2 molecules and their reported EC50.
CCc1c(Cc2c(F)cccc2Cl)nc(SCC(=O)c2ccc(F)cc2)[nH]c1=O | > 57 µM
CC(C)c1c(Cc2c(F)cccc2Cl)nc(SCC(=O)c2ccc(F)cc2)[nH]c1=O | > 55 µM

Would you be so kind as to report EC50 for each listed record?
1. CCc1c(Cc2c(F)cccc2F)nc(SCC(=O)c2ccc(OC)cc2)[nH]c1=O
2. COc1ccc(C(=O)CSc2nc(Cc3c(Cl)cccc3Cl)c(C(C)C)c(=O)[nH]2)cc1

Result:
> 58 µM
> 14 µM

----------
tested on: Human immunodeficiency virus 1; assay: Resistance index, ratio of ID50 for reverse transcriptase Y181I mutant to IC50 for wild-type HIV1 reverse transcriptase
Heads up, the class ranges for Ratio are bottom range: < 20; center range: ≥ 20 and < 100; top range: ≥ 100

Answered cases to consult:
COc1ccc(CCSc2nc(Cc3c(Cl)cccc3Cl)c(C)c(=O)[nH]2)cc1 | center range
CC(C)c1c(Cc2c(Cl)cccc2Cl)nc(SCC(=O)c2ccccc2)[nH]c1=O | top range
Cc1c(Cc2c(Cl)cccc2Cl)nc(SCC(=O)c2ccccc2)[nH]c1=O | bottom range
COc1ccc(C(=O)CSc2nc(Cc3c(Cl)cccc3Cl)c(C(C)C)c(=O)[nH]2)cc1 | top range
O=C(CSc1nc(Cc2c(F)cccc2Cl)cc(=O)[nH]1)c1ccccc1 | top range
Cc1ccnc2c1NC(=O)c1cccnc1N2C1CC1 | center range
COc1ccc(C(=O)CSc2nc(Cc3c(Cl)cccc3Cl)cc(=O)[nH]2)cc1 | bottom range
CCc1c(Cc2c(Cl)cccc2Cl)nc(SCC(=O)c2ccc(F)cc2)[nH]c1=O | bottom range

Now turn to the next compound.
Query: Which band does CCc1c(Cc2c(F)cccc2F)nc(SCC(=O)c2ccc(OC)cc2)[nH]c1=O fall in?
Result: bottom range

----------
Hi there, I'd appreciate the recorded pEC50 for every entry that follows.
system: Human immunodeficiency virus 1; test: Antiviral activity against HIV1 NL4-3 in human MT4 cells assessed as inhibition of virus-induced cytopathogenicity by MTT assay; type: functional, organism-based; conditions: Human immunodeficiency virus 1, NL4-3, MT4
Numbers only, as −log10 of the molar value.

Below: 5 compounds and their reported pEC50.
COc1ccc(C(=O)CSc2nc(Cc3c(F)cccc3Cl)cc(=O)[nH]2)cc1 | 5.81
Cc1c(Cc2c(F)cccc2F)nc(SCc2ccncc2)[nH]c1=O | 7.22
CC(C)c1c(Cc2c(F)cccc2Cl)nc(SCC(=O)c2ccccc2)[nH]c1=O | 8.30
COc1ccc(C(=O)CSc2nc(Cc3c(Cl)cccc3Cl)c(C)c(=O)[nH]2)cc1 | 7.17
Cc1c(Cc2c(F)cccc2Cl)nc(SCC(=O)c2ccccc2)[nH]c1=O | 7.35

Would you be so kind as to report pEC50 for each listed record?
1. Cc1c(Cc2c(Cl)cccc2Cl)nc(SCC(=O)c2ccccc2)[nH]c1=O
2. COc1ccc(C(=O)CSc2nc(Cc3c(Cl)cccc3Cl)c(C(C)C)c(=O)[nH]2)cc1
3. Cc1c(Cc2c(F)cccc2F)nc(SC(C)C)[nH]c1=O
4. O=C(CSc1nc(Cc2c(F)cccc2F)cc(=O)[nH]1)c1ccc(Cl)cc1
5. COc1ccc(C(=O)CSc2nc(Cc3c(F)cccc3F)c(C)c(=O)[nH]2)cc1
6. CCc1c(Cc2c(F)cccc2F)nc(SCC(=O)c2ccc(OC)cc2)[nH]c1=O
7. CCc1c(Cc2c(F)cccc2Cl)nc(SCC(=O)c2ccccc2)[nH]c1=O

Result:
1: 7.42; 2: 9.40; 3: 8.22; 4: 5.01; 5: 7.32; 6: 8.05; 7: 7.92

----------
tested on: Human immunodeficiency virus 1; experiment: Resistance index, ratio of EC50 for drug-resistant HIV1 isolate with reverse transcriptase Y188L mutation to EC50 for wild type HIV1 NL4-3; assay type: functional
endpoint-name: Ratio EC50
Give bare numbers.

CCc1c(Cc2c(Cl)cccc2Cl)nc(SCC(=O)c2ccccc2)[nH]c1=O | 714
CC(C)c1c(Cc2c(Cl)cccc2Cl)nc(SCC(=O)c2ccccc2)[nH]c1=O | 1375
CCc1c(Cc2c(Cl)cccc2Cl)nc(SCC(=O)c2ccc(F)cc2)[nH]c1=O | 5186
COc1ccc(C(=O)CSc2nc(Cc3c(F)cccc3F)c(C(C)C)c(=O)[nH]2)cc1 | 7350

Shift focus to the following entry.
Query: Which value of Ratio EC50 has been reported for COc1ccc(CCSc2nc(Cc3c(Cl)cccc3Cl)c(C)c(=O)[nH]2)cc1 in the records?
Result: 49286

----------
tested on: Human immunodeficiency virus 1; test: Antiviral activity against HIV1 isolates with reverse transcriptase Y188L mutation in human MT4 cells assessed as inhibition of virus-induced cytopathogenicity by MTT assay; type: functional, organism-based; conditions: Human immunodeficiency virus 1, MT4
endpoint-name: EC50

Below: 3 molecules and their reported EC50.
CCc1c(Cc2c(Cl)cccc2Cl)nc(SCC(=O)c2ccc(OC)cc2)[nH]c1=O | > 54 µM
CC(C)c1c(Cc2c(F)cccc2F)nc(SCC(=O)c2ccccc2)[nH]c1=O | > 60 µM
CCc1c(Cc2c(F)cccc2F)nc(SCC(=O)c2ccccc2)[nH]c1=O | > 56 µM

Would you be so kind as to report EC50 for each listed record?
1. CCc1c(Cc2c(F)cccc2Cl)nc(SCC(=O)c2ccc(OC)cc2)[nH]c1=O
2. COc1ccc(C(=O)CSc2nc(Cc3c(Cl)cccc3Cl)cc(=O)[nH]2)cc1

Result:
> 11 µM
> 11 µM

Would you be so kind as to report EC50 for each listed record?
1. COc1ccc(C(=O)CSc2nc(Cc3c(F)cccc3F)c(C)c(=O)[nH]2)cc1
2. CC(C)c1c(Cc2c(F)cccc2F)nc(SCC(=O)c2ccc(F)cc2)[nH]c1=O

Result:
["> 60 µM", "> 58 µM"]

meta.source: ChEMBL document CHEMBL1155883
